Reported pEC50 values are given for each entry in this list.
Tested on: SiHa
Assay: Antiproliferative activity against human SiHa cells after 72 hrs by MTT assay
Type: functional, cell-based
// field semantics: pEC50 = negative decimal log of concentration (mol/L)

These solved cases illustrate the format of a correct answer.
>>> reading("COc1ccc2c(c1)CC[C@@H]1[C@@H]2CC[C@]2(C)[C@@H](O)[C@H](N)C[C@@H]12")
4.76
>>> reading("COc1ccc2c(c1)CC[C@@H]1[C@@H]2CC[C@]2(C)[C@@H](O)[C@H](NC(=O)O[C@H]3O[C@@H]4O[C@@]5(C)CC[C@H]6[C@H](C)CC[C@@H]([C@H]3C)[C@@]46OO5)C[C@@H]12")
5.21
>>> reading("C[C@H]1[C@@H](O)O[C@@H]2O[C@@]3(C)CC[C@H]4[C@H](C)CC[C@@H]1[C@@]24OO3")
4.53

Next:
C[C@H]1[C@@H](CC(=O)OC[C@H]2C[C@H]3[C@@H]4CCc5cc(OCc6ccccc6)ccc5[C@H]4CC[C@]3(C)[C@H]2O)O[C@@H]2O[C@@]3(C)CC[C@H]4[C@H](C)CC[C@@H]1[C@@]24OO3 has a reported pEC50 of 4.79

---

System: HeLa
Test: Antiproliferative activity against human HeLa cells after 72 hrs by MTT assay
Assay type: functional, cell-based
Reported pEC50 values are given for each entry in this list.
// field semantics: pEC50 = negative decimal log of concentration (mol/L)

These solved cases illustrate the format of a correct answer.
>>> reading("COc1ccc2c(c1)CC[C@@H]1[C@@H]2CC[C@]2(C)[C@@H](O)[C@H](NC(=O)CCC(=O)O[C@@H]3O[C@@H]4O[C@@]5(C)CC[C@H]6[C@H](C)CC[C@@H]([C@H]3C)[C@@]46OO5)C[C@@H]12")
4.94
>>> reading("C[C@H]1[C@@H](O)O[C@@H]2O[C@@]3(C)CC[C@H]4[C@H](C)CC[C@@H]1[C@@]24OO3")
4.98
>>> reading("C[C@H]1[C@H](OC(=O)CCC(=O)O)O[C@@H]2O[C@@]3(C)CC[C@H]4[C@H](C)CC[C@@H]1[C@@]24OO3 [ARTESUNATE]")
4.92
>>> reading("C[C@]12CC[C@@H]3c4ccc(OCc5ccccc5)cc4CC[C@H]3[C@@H]1C[C@H](CO)[C@@H]2O")
4.89

Next:
Assay HeLa, sample COc1ccc2c(c1)CC[C@@H]1[C@@H]2CC[C@]2(C)[C@@H](O)[C@H](N)C[C@@H]12 , pEC50 read: 4.88

---

System: HeLa
Assay: Antiproliferative activity against human HeLa cells after 72 hrs by MTT assay
Format: functional, cell-based
Property Measured: pEC50
// field semantics: pEC50 = negative decimal log of concentration (mol/L)

These solved cases illustrate the format of a correct answer.
>>> reading("COc1ccc2c(c1)CC[C@@H]1[C@@H]2CC[C@]2(C)C(=O)[C@H](n3cc(CO[C@H]4O[C@@H]5O[C@@]6(C)CC[C@H]7[C@H](C)CC[C@@H]([C@H]4C)[C@@]57OO6)nn3)C[C@@H]12")
4.81
>>> reading("C[C@H]1[C@@H](CC(=O)OC[C@H]2C[C@H]3[C@@H]4CCc5cc(OCc6ccccc6)ccc5[C@H]4CC[C@]3(C)[C@H]2O)O[C@@H]2O[C@@]3(C)CC[C@H]4[C@H](C)CC[C@@H]1[C@@]24OO3")
4.85

COc1ccc2c(c1)CC[C@@H]1[C@@H]2CC[C@]2(C)[C@@H](O)[C@H](NC(=O)O[C@H]3O[C@@H]4O[C@@]5(C)CC[C@H]6[C@H](C)CC[C@@H]([C@H]3C)[C@@]46OO5)C[C@@H]12 has a reported pEC50 of 5.78

---

System: T47D
Assay: Antiproliferative activity against human T47D cells after 72 hrs by MTT assay
Assay type: functional, cell-based
Property Measured: pEC50
// field semantics: pEC50 = negative decimal log of concentration (mol/L)

>>> reading("C[C@H]1[C@@H](CC(=O)OC[C@H]2C[C@H]3[C@@H]4CCc5cc(OCc6ccccc6)ccc5[C@H]4CC[C@]3(C)[C@H]2O)O[C@@H]2O[C@@]3(C)CC[C@H]4[C@H](C)CC[C@@H]1[C@@]24OO3")
6.03

C[C@H]1[C@H](OC(=O)CCC(=O)OC[C@H]2C[C@H]3[C@@H]4CCc5cc(OCc6ccccc6)ccc5[C@H]4CC[C@]3(C)[C@H]2O)O[C@@H]2O[C@@]3(C)CC[C@H]4[C@H](C)CC[C@@H]1[C@@]24OO3 has a reported pEC50 of 6.66

COc1ccc2c(c1)CC[C@@H]1[C@@H]2CC[C@]2(C)[C@@H](O)[C@H](NC(=O)CCC(=O)O[C@@H]3O[C@@H]4O[C@@]5(C)CC[C@H]6[C@H](C)CC[C@@H]([C@H]3C)[C@@]46OO5)C[C@@H]12 has a reported pEC50 of 6.13

COc1ccc2c(c1)CC[C@@H]1[C@@H]2CC[C@]2(C)[C@@H](O)[C@H](NC(=O)O[C@H]3O[C@@H]4O[C@@]5(C)CC[C@H]6[C@H](C)CC[C@@H]([C@H]3C)[C@@]46OO5)C[C@@H]12 has a reported pEC50 of 5.93

---

Reported EC50 values are given for each entry in this list.
Tested on: SiHa
Assay: Antiproliferative activity against human SiHa cells after 72 hrs by MTT assay
Format: functional, cell-based
Give the quantity in µM, number only.

These solved cases illustrate the format of a correct answer.
>>> reading("C[C@H]1[C@H](OC(=O)CCC(=O)OC[C@H]2C[C@H]3[C@@H]4CCc5cc(OCc6ccccc6)ccc5[C@H]4CC[C@]3(C)[C@H]2O)O[C@@H]2O[C@@]3(C)CC[C@H]4[C@H](C)CC[C@@H]1[C@@]24OO3")
28.4
>>> reading("COc1ccc2c(c1)CC[C@@H]1[C@@H]2CC[C@]2(C)C(=O)[C@H](n3cc(CO[C@H]4O[C@@H]5O[C@@]6(C)CC[C@H]7[C@H](C)CC[C@@H]([C@H]4C)[C@@]57OO6)nn3)C[C@@H]12")
28.9
>>> reading("C[C@]12CC[C@@H]3c4ccc(OCc5ccccc5)cc4CC[C@H]3[C@@H]1C[C@H](CO)[C@@H]2O")
7.75

COc1ccc2c(c1)CC[C@@H]1[C@@H]2CC[C@]2(C)[C@@H](O)[C@H](NC(=O)CCC(=O)O[C@@H]3O[C@@H]4O[C@@]5(C)CC[C@H]6[C@H](C)CC[C@@H]([C@H]3C)[C@@]46OO5)C[C@@H]12 has a reported EC50 of 26

---

System: T47D
Assay: Antiproliferative activity against human T47D cells after 72 hrs by MTT assay
Type: functional, cell-based
Labelling field: enter 1 (yes) if recorded EC50 is less than 5 µM. Enter 0 (no) if it equals or exceeds that cut-off.

Would you please look over these solved cases?
>>> assigned_label("COc1ccc2c(c1)CC[C@@H]1[C@@H]2CC[C@]2(C)[C@@H](O)[C@H](N)C[C@@H]12")
"0 (no)"
>>> assigned_label("COc1ccc2c(c1)CC[C@@H]1[C@@H]2CC[C@]2(C)C(=O)[C@H](n3cc(CO[C@H]4O[C@@H]5O[C@@]6(C)CC[C@H]7[C@H](C)CC[C@@H]([C@H]4C)[C@@]57OO6)nn3)C[C@@H]12")
"1 (yes)"
>>> assigned_label("C[C@H]1[C@@H](O)O[C@@H]2O[C@@]3(C)CC[C@H]4[C@H](C)CC[C@@H]1[C@@]24OO3 [ARTENIMOL]")
"1 (yes)"

Problem: Input C[C@H]1[C@H](OC(=O)CCC(=O)O)O[C@@H]2O[C@@]3(C)CC[C@H]4[C@H](C)CC[C@@H]1[C@@]24OO3 [ARTESUNATE] ; condition: EC50 strictly below 5 µM. Does it hold?
Solution: 1 (yes)

Problem: Input C[C@]12CC[C@@H]3c4ccc(OCc5ccccc5)cc4CC[C@H]3[C@@H]1C[C@H](CO)[C@@H]2O ; condition: EC50 strictly below 5 µM. Does it hold?
Solution: 0 (no)

Problem: Input COc1ccc2c(c1)CC[C@@H]1[C@@H]2CC[C@]2(C)C(=O)[C@H](N=[N+]=[N-])C[C@@H]12 ; condition: EC50 strictly below 5 µM. Does it hold?
Solution: 0 (no)
